B1: Double-stranded RNA-binding protein Staufen homolog 1, residues 183 to 249; numbered along this chain, O95793 (parent)
chain: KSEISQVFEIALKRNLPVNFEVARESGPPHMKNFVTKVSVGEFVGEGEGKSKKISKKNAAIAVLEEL

- Variants of: B1
- Experimental Details: abundance fitness (aPCA) (normalised: wild type 0, dead -1); higher = more abundant; growth selection in yeast, the domain comes from the species named
- Condition: Homo sapiens

[
  {
    "Changes": "P17H",
    "abundance fitness": -0.093
  },
  {
    "Changes": "V38K",
    "abundance fitness": -0.511
  },
  {
    "Changes": "K52Q",
    "abundance fitness": -0.318
  },
  {
    "Changes": "F8V",
    "abundance fitness": -0.203
  },
  {
    "Changes": "G49M",
    "abundance fitness": -0.729
  },
  {
    "Changes": "K13R",
    "abundance fitness": -0.071
  },
  {
    "Changes": "V40R",
    "abundance fitness": -0.811
  },
  {
    "Changes": "P29G",
    "abundance fitness": 0.052
  },
  {
    "Changes": "P28A",
    "abundance fitness": -0.155
  },
  {
    "Changes": "N33E",
    "abundance fitness": -0.269
  },
  {
    "Changes": "V18K",
    "abundance fitness": -0.562
  },
  {
    "Changes": "V22F",
    "abundance fitness": -0.165
  },
  {
    "Changes": "G45P",
    "abundance fitness": -0.975
  },
  {
    "Changes": "M31D",
    "abundance fitness": 0.199
  },
  {
    "Changes": "A60E",
    "abundance fitness": -0.575
  },
  {
    "Changes": "F34C",
    "abundance fitness": -0.547
  },
  {
    "Changes": "E48L",
    "abundance fitness": -0.044
  },
  {
    "Changes": "L67E",
    "abundance fitness": -0.743
  },
  {
    "Changes": "S51G",
    "abundance fitness": -0.791
  },
  {
    "Changes": "G41N",
    "abundance fitness": -0.853
  },
  {
    "Changes": "S2P",
    "abundance fitness": -0.328
  },
  {
    "Changes": "F34L",
    "abundance fitness": -0.698
  },
  {
    "Changes": "I54D",
    "abundance fitness": -0.04
  },
  {
    "Changes": "S2V",
    "abundance fitness": -0.7
  },
  {
    "Changes": "P17A",
    "abundance fitness": -0.09
  },
  {
    "Changes": "K56G",
    "abundance fitness": -0.599
  },
  {
    "Changes": "M31P",
    "abundance fitness": -0.132
  },
  {
    "Changes": "F20H",
    "abundance fitness": -0.699
  },
  {
    "Changes": "G27E",
    "abundance fitness": -0.339
  },
  {
    "Changes": "K37C",
    "abundance fitness": -0.251
  },
  {
    "Changes": "V7D",
    "abundance fitness": -0.676
  },
  {
    "Changes": "P17G",
    "abundance fitness": -0.24
  },
  {
    "Changes": "E25L",
    "abundance fitness": -0.083
  },
  {
    "Changes": "A60D",
    "abundance fitness": -0.649
  },
  {
    "Changes": "K1R",
    "abundance fitness": -0.178
  },
  {
    "Changes": "V44C",
    "abundance fitness": 0.033
  },
  {
    "Changes": "I61C",
    "abundance fitness": -0.126
  },
  {
    "Changes": "G41T",
    "abundance fitness": -1.17
  },
  {
    "Changes": "K53W",
    "abundance fitness": -0.214
  },
  {
    "Changes": "A59S",
    "abundance fitness": -0.608
  },
  {
    "Changes": "L12K",
    "abundance fitness": -0.029
  },
  {
    "Changes": "S51T",
    "abundance fitness": 0.056
  },
  {
    "Changes": "A23F",
    "abundance fitness": -0.121
  },
  {
    "Changes": "R14P",
    "abundance fitness": -0.594
  },
  {
    "Changes": "A62V",
    "abundance fitness": -0.403
  },
  {
    "Changes": "V7C",
    "abundance fitness": -0.607
  }
]
